test: qHTS screen for small molecules that inhibit ELG1-dependent DNA repair in human embryonic kidney (HEK293T) cells expressing luciferase-tagged ELG1; conditions: HEK293T ELG1-luciferase reporter, luminescence, 16 h, DNA damage induced by 5-fluorouridine; series mostly up to 46.1 µM; also: nearly all actives have a fitted effect of over 55% in size
The campaign covered roughly 330,000 compounds. About 7,700 (2.3%) were called active. Roughly 26% stayed inconclusive and do not appear here. Calls follow the shape of the dose curve; as a rule, active = well fitted inhibition curve with a large enough effect; inconclusive = small, poorly fitted or top-dose-only effect, or effect the other way; inactive = flat fitted curve, though single readings scatter. What follows is part of a selection rich in actives, with near analogues and random picks from the rest.
Log the outcome using a class from active, inactive

Incoming: Would you mind telling me which call this test gave Cc1nnnn1/C(=C\c1ccccc1)C(=O)OCC(=O)N1CC2(C)CC1CC(C)(C)C2 (stereo not drawn) ?
Outgoing: active

Incoming: Would you mind telling me which call this test gave COc1cc(NC(=O)COC(=O)c2cc(S(=O)(=O)N3CCOCC3)ccc2F)cc(OC)c1 ?
Outgoing: inactive

Incoming: Would you mind telling me which call this test gave O=C(NC1CCCCCC1)C1CCN(C(=O)c2ccc(Cl)cc2)CC1 ?
Outgoing: inactive

Incoming: Would you mind telling me which call this test gave CN(CCc1ccccc1)C(=O)c1cccc(NC(=O)Cc2ccc([N+](=O)[O-])cc2)c1 ?
Outgoing: active

Incoming: Would you mind telling me which call this test gave C[C@H](NS(=O)(=O)c1ccc(Cl)cc1)C(=O)OCC(=O)N1CCOCC1 ?
Outgoing: inactive

Incoming: Would you mind telling me which call this test gave Cc1cccc(NC(=O)Nc2ccc(OCc3ccccc3)cc2)n1 ?
Outgoing: inactive

Incoming: Would you mind telling me which call this test gave CNC(=O)c1sc(Nc2ccc(OCc3ccccc3)cc2)nc1C ?
Outgoing: active

Incoming: Would you mind telling me which call this test gave Cn1c(=O)oc2cc(S(=O)(=O)N3CCC(C(=O)Nc4ccc(OC(F)(F)F)cc4)CC3)ccc21 ?
Outgoing: inactive

---

assay: qHTS screen for small molecules that inhibit ELG1-dependent DNA repair in human embryonic kidney (HEK293T) cells expressing luciferase-tagged ELG1; conditions: HEK293T ELG1-luciferase reporter, luminescence, 16 h, DNA damage induced by 5-fluorouridine; series mostly up to 46.1 µM; also: nearly all actives have a fitted effect of over 55% in size
Among all 330,000 compounds or so, about 7,700 (2.3%) were called active. Not shown: some 26% with an inconclusive outcome. The call rests on the fitted dose curve; in most records, active means well fitted inhibition curve with a large enough effect; inconclusive means small, poorly fitted or top-dose-only effect, or effect the other way; inactive means flat fitted curve, though single readings scatter. The sample as a whole holds a higher share of actives than the screen did.
Log the outcome using a class from T = active, F = inactive

Incoming: Would you mind telling me which call this test gave Cc1ccc(Nc2nc(-c3sc(NC(=O)c4ccccc4)nc3C)cs2)cc1 ?
Outgoing: F

Incoming: Would you mind telling me which call this test gave Cc1ccc(C(=O)NC23CC4CC(CC(C4)C2)C3)c(Cl)c1 ?
Outgoing: F

Incoming: Would you mind telling me which call this test gave Cc1sc2ncnc(N3CCC(C(=O)Nc4ccc(F)cc4Cl)CC3)c2c1C ?
Outgoing: T

Incoming: Would you mind telling me which call this test gave Cc1cc(C)c2nc(N(CCN(C)C)C(=O)/C=C/c3cccs3)sc2c1 ?
Outgoing: F

Incoming: Would you mind telling me which call this test gave COc1ccc(NC(=S)NC2CCS(=O)(=O)C2)cc1 (stereo not drawn) ?
Outgoing: F

Incoming: Would you mind telling me which call this test gave COC(=O)c1c(NC(=O)c2ccccc2F)sc2c1C(C(=O)OC)CC2 (stereo not drawn) ?
Outgoing: F

Incoming: Would you mind telling me which call this test gave COc1ccc(C(=O)Nc2ccc3nc(N4CCCCC4)cc(C)c3c2)cc1OC ?
Outgoing: T

Incoming: Would you mind telling me which call this test gave CCCC(CNC(=O)COC(=O)C1=NNC(=O)CC1)c1ccc(Cl)cc1Cl (stereo not drawn) ?
Outgoing: F

---

test: qHTS screen for small molecules that inhibit ELG1-dependent DNA repair in human embryonic kidney (HEK293T) cells expressing luciferase-tagged ELG1; conditions: HEK293T ELG1-luciferase reporter, luminescence, 16 h, DNA damage induced by 5-fluorouridine; series mostly up to 46.1 µM; also: nearly all actives have a fitted effect of over 55% in size; also: potency is read from the fitted curve at half-maximal effect
Hit rate of the full screen: of about 330,000 compounds, about 7,700 (2.3%) were called active. Another 26% or so got no clear call; they are omitted. Only a selection was taken, and actives are over-represented in it overall.
observation-type: Potency

Worked cases, answers included:
1) CCOC(=O)CCCCCC(=O)Nc1ccc2c(c1)CC(=O)N([C@@H](C)CO)C[C@H](C)[C@@H](CN(C)Cc1ccccc1)O2 : inactive
2) COc1ccc(OC)c(CNC(=O)Cn2nc(C)c3c(C)n(-c4ccc(C)cc4)nc3c2=O)c1 : 8.2 µM (active)
3) Cc1c(Cl)c([N+](=O)[O-])nn1CCCC(=O)Nc1cc(Cl)ccc1Cl : inactive
4) CCCc1cc(=O)[nH]c(SCC(=O)Nc2sc3c(c2C#N)CCCC3)n1 : inactive
5) Cc1ccccc1Nc1nc(N)nc(COC(=O)CCC(=O)c2ccc(F)cc2)n1 : inactive
6) CCOC(=O)N1CCN(C(=O)Cn2cnc3ccccc3c2=O)CC1 : inactive
7) O=C(CSc1nc2ccccc2c(=O)[nH]1)Nc1nc(-c2ccc(Br)cc2)cs1 : inactive
8) CC(=O)Nc1ccc(S(=O)(=O)NC(C)C(=O)OCCOc2ccc(F)cc2)cc1 (stereo not drawn) : inactive

Incoming: Note Potency for the compound shown: COc1ccc(CNc2ncnc3ccccc23)cc1
Outgoing: 2.59 µM (active)

Incoming: Note Potency for the compound shown: COc1ccc(S(=O)(=O)N2CCOCC2)cc1NC(=O)CSc1nnc(NC2CC2)s1
Outgoing: inactive

Incoming: Note Potency for the compound shown: O=C(COc1ccc(S(=O)(=O)Nc2cccc(C(F)(F)F)c2)cc1)N1CCOCC1
Outgoing: inactive

Incoming: Note Potency for the compound shown: Cc1ccc(N(Cc2ccccc2O)C(=O)c2ccccc2F)cc1
Outgoing: inactive

Incoming: Note Potency for the compound shown: O=C(Nc1cc(Cl)ccc1N1CCOCC1)c1ccc(N2CCCC2=O)cc1
Outgoing: inactive

---

test: qHTS screen for small molecules that inhibit ELG1-dependent DNA repair in human embryonic kidney (HEK293T) cells expressing luciferase-tagged ELG1; conditions: HEK293T ELG1-luciferase reporter, luminescence, 16 h, DNA damage induced by 5-fluorouridine; series mostly up to 46.1 µM; also: nearly all actives have a fitted effect of over 55% in size
The campaign covered roughly 330,000 compounds. About 7,700 (2.3%) were called active. Roughly 26% stayed inconclusive and do not appear here. The call rests on the fitted dose curve; in most records, active means well fitted inhibition curve with a large enough effect; inconclusive means small, poorly fitted or top-dose-only effect, or effect the other way; inactive means flat fitted curve, though single readings scatter. What follows is part of a selection rich in actives, with near analogues and random picks from the rest.
Log the outcome using a class from Y = active, N = inactive

Incoming: Would you mind telling me which call this test gave O=C(CN1C(=O)NC2(CCCCCC2)C1=O)Nc1ccc([N+](=O)[O-])cc1 ?
Outgoing: N

Incoming: Would you mind telling me which call this test gave C=CCn1c(SCC(=O)NCc2ccccc2)nnc1-c1cc(Br)ccc1O ?
Outgoing: Y

Incoming: Would you mind telling me which call this test gave COc1ccc(NC(C)=O)cc1NC(=O)CN1CCN(C2c3ccccc3-c3ccccc32)CC1 ?
Outgoing: Y

Incoming: Would you mind telling me which call this test gave C=CCOC(=O)C1=C(C)NC(C)=C(C(=O)OCC=C)C1c1cccs1 ?
Outgoing: N

Incoming: Would you mind telling me which call this test gave Cc1ccccc1CSCCNC(=O)c1ccc(Cl)c(S(=O)(=O)N2CCOCC2)c1 ?
Outgoing: Y

Incoming: Would you mind telling me which call this test gave COc1ccc(-n2c(=O)[nH]c3cc(C(=O)NCCc4ccc(OC)c(OC)c4)ccc3c2=O)c(OC)c1 ?
Outgoing: N

Incoming: Would you mind telling me which call this test gave O=C(c1ccc(Cl)c(S(=O)(=O)N2CCCCCC2)c1)N1CCN(c2ccc(O)cc2)CC1 ?
Outgoing: Y

Incoming: Would you mind telling me which call this test gave Fc1ccccc1/C=C1\CCCC2=C1Nc1ncnn1C2c1ccccc1F (stereo not given) ?
Outgoing: Y

Incoming: Would you mind telling me which call this test gave O=C(CN1C(=O)NC2(CCCC2)C1=O)Nc1cc(C(F)(F)F)ccc1N1CCOCC1 ?
Outgoing: N

Incoming: Would you mind telling me which call this test gave C=CCn1c(SCC(=O)Nc2nc3ccccc3s2)nnc1-c1ccccc1O ?
Outgoing: N

Incoming: Would you mind telling me which call this test gave C=CCn1c(SCC(=O)NC(=O)Cc2ccccc2)nc2ccccc2c1=O ?
Outgoing: N

Incoming: Would you mind telling me which call this test gave COc1cccc(CC(=O)Nc2nc(-c3ccc(OC)c(OC)c3)cs2)c1 ?
Outgoing: Y

Incoming: Would you mind telling me which call this test gave COc1cc(C(=O)NC2CCN(Cc3ccccc3)CC2)cc(Cl)c1OC(C)C ?
Outgoing: N

Incoming: Would you mind telling me which call this test gave COc1ccc(-c2nnc(SCC(=O)NC3CCCCC3)o2)cc1OC ?
Outgoing: N

Incoming: Would you mind telling me which call this test gave Cc1cccc(OCC(=O)NC(=S)Nc2ccccc2N2CCOCC2)c1 ?
Outgoing: N

Incoming: Would you mind telling me which call this test gave CC(C)(CNC(=O)Cc1ccc(Cl)cc1Cl)N1CCOCC1 ?
Outgoing: N

Incoming: Would you mind telling me which call this test gave COc1cccc(CC(=O)Nc2ccc(-c3csc(C)n3)cc2)c1 ?
Outgoing: N

Incoming: Would you mind telling me which call this test gave COC(=O)c1cc(-c2cccs2)nc2ccccc12 ?
Outgoing: N

Incoming: Would you mind telling me which call this test gave O=C(Nc1ccncc1)c1ccc(Cl)c([N+](=O)[O-])c1 ?
Outgoing: N

Incoming: Would you mind telling me which call this test gave Cc1cc(N2CCCC2)ccc1NC(=O)COc1ccc(Cl)cc1 ?
Outgoing: N

Incoming: Would you mind telling me which call this test gave COc1ccc(CC(=O)NC2CCSc3ccccc32)cc1OC (stereo not given) ?
Outgoing: N

Incoming: Would you mind telling me which call this test gave CC1=C(C(N)=O)C(c2ccc(Br)cc2)n2ncnc2N1 (stereo not given) ?
Outgoing: N

Incoming: Would you mind telling me which call this test gave COc1ccc(NC(C)=O)cc1NC(=O)CN1CCN(c2ccccn2)CC1 ?
Outgoing: N

Incoming: Would you mind telling me which call this test gave COc1cccc(NC(=S)N(CCc2c(C)[nH]c3ccccc23)Cc2ccco2)c1 ?
Outgoing: Y

Incoming: Would you mind telling me which call this test gave Cc1cc(C(=O)OC(C)C(=O)Nc2cccc(S(=O)(=O)N3CCOCC3)c2)c(C)o1 (stereo not given) ?
Outgoing: N
